TARGET OF ASSAY: Geranylgeranyl transferase type I (Homo sapiens, UniProt P49354+P53609)
ASSAY PROTOCOL: Inhibition of rate of incorporation of [3H]GGPP into a biotinylated peptide corresponding to C-terminus of human Ki-Ras by human geranylgeranyl-transferase type I.
EXPERIMENTAL ENDPOINT: IC50 (µM)

INSERT INTO assay_data (compound, target_of_assay, result_value) VALUES
  ('N#Cc1ccc(Cn2ccnc2)cc1S(=O)(=O)c1ccc(Cl)cc1Cl', 'Geranylgeranyl transferase type I (Homo sapiens, UniProt P49354+P53609)', 8.8),
  ('N#Cc1ccc(Cn2ccnc2)cc1[S+]([O-])c1ccc(Cl)cc1Cl (centres undefined)', 'Geranylgeranyl transferase type I (Homo sapiens, UniProt P49354+P53609)', 2);

(P) N#Cc1ccc(Cn2ccnc2)cc1Oc1cccc2ccccc12
(Q) COc1cccc(Oc2cc(Cn3ccnc3)ccc2C#N)c1OC
Incoming: Select one. Lower IC50: P or Q Provide the label of your selected option as the answer.
Outgoing: P
